target: recombinant thrombin; assay: selectivity inhibition assay
No end group written: not given here. *: point of attachment. kbt‑6‑CONH‑4‑pyridine = ketobenzothiazole-6-CONH-4-pyridine (Kbt-4-pyridinylamide), O=C(Nc1ccncc1)c1ccc2nc(*)sc2c1; kbt = C-terminal ketobenzothiazole, c1ccc2sc(*)nc2c1
Value Type: Ki (µM)
Note: unit µM is implicit; provide only the numeric part.

H-Arg-Leu-Arg-kbt [H-RLR-kbt] ... 8.2

Quick note, Ki for Ac-SKLR-{kbt‑6‑CONH‑4‑pyridine} [Ac-SKLR(SEQ ID NO: 10)-Kbt-4-pyridinylamide] landed at 3.43

Quick note, Ki for H-Trp-Leu-Arg-{kbt-Val-NH2} [H-WLR-kbt-Val-NH2] landed at 0.041

Quick note, Ki for Ac-KRLR (not fully specified (C-terminus); also: benzyl COOH at 3 or 4 (tables differ)) [Ac-KRLR(SEQ ID NO: 8)-kbt-Benzyl-3-COOH] landed at 1.62

Quick note, Ki for Ac-SKLR (not fully specified (C-terminus)) [Ac-SKLR(SEQ ID NO: 10)-Kbt-Phe-NH2] landed at 3.64
